target: Muscarinic acetylcholine receptor M4 (Homo sapiens) (UniProt P08173)
Sequence (whole entry): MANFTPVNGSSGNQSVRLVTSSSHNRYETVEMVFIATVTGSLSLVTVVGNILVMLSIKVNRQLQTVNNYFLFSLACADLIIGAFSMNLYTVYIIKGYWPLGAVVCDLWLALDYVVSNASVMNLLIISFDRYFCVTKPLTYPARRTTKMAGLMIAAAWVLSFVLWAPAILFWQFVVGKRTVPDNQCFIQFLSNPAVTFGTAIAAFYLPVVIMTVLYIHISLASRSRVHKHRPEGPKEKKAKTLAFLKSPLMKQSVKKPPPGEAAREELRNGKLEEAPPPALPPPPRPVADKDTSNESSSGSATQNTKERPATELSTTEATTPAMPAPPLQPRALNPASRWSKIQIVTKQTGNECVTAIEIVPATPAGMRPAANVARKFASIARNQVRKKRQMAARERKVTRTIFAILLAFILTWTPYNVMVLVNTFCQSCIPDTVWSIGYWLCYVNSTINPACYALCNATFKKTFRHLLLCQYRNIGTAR
measurement.notes: Positive allosteric modulation of human M4 receptor expressed in CHO cells co-expressing Gqi5 assessed as increase in acetylcholine-induced calcium mobilization relative to acetylcholine
Type: functional, cell-based
Reported %max values follow for various compounds
Field: numeric (%). Do not append units.

Worked set:
Cc1nnc2sc(C(=O)NC3CN(c4ccccc4)C3)c(N)c2c1C ... 85
Cc1nnc2sc(C(=O)NC3CN(c4cccnc4)C3)c(N)c2c1C ... 96
COc1cc(N2CC(NC(=O)c3sc4nnc(C)c(C)c4c3N)C2)ccn1 ... 86

[ask] # lookup: %max of Cc1nnc2sc(C(=O)NC3CN(c4ccc(S(=O)(=O)C(F)(F)F)cc4)C3)c(N)c2c1C
[reply] 86

[ask] # lookup: %max of Cc1nnc2sc(C(=O)NC3CN(c4cc(F)nc(F)c4)C3)c(N)c2c1C
[reply] 84

[ask] # lookup: %max of Cc1nnc2sc(C(=O)NC3CN(C(=O)c4ccccn4)C3)c(N)c2c1C
[reply] 91

[ask] # lookup: %max of Cc1nnc2sc(C(=O)NC3CN(c4cnccn4)C3)c(N)c2c1C
[reply] 80

[ask] # lookup: %max of COc1cncc(N2CC(NC(=O)c3sc4nnc(C)c(C)c4c3N)C2)c1
[reply] 88

[ask] # lookup: %max of Cc1nnc2sc(C(=O)NC3CN(C(=O)OCc4ccccc4)C3)c(N)c2c1C
[reply] 81

[ask] # lookup: %max of Cc1nnc2sc(C(=O)NC3CN(c4ccc(F)c(F)c4)C3)c(N)c2c1C
[reply] 84

Provenance of the data: ChEMBL document CHEMBL4033702
